System: HEK-293T
Test: Multiplex assay against HEK293T
Format: toxicity, cell-based
Conditions: human, 12 h, 10 µM, compound concentration 10 uM, replicate 1
QUANTITY_KIND: Population Pyknosed Nuclei (%)
The reply should contain only the number, in %.

Ask | Param readout= Population Pyknosed Nuclei (%); system= HEK-293T; entry= COc1cc2nc(N3CCN(C(=O)c4ccco4)CC3)nc(N)c2cc1OC.Cl [PRAZOSIN HYDROCHLORIDE] ; returns value.
Reply | 14

Ask | Next molecule: CN1C[C@H](C(=O)N[C@]2(C)O[C@@]3(O)[C@@H]4CCCN4C(=O)[C@H](Cc4ccccc4)N3C2=O)C[C@@H]2c3cccc4[nH]cc(c34)C[C@H]21.CS(=O)(=O)O [DIHYDROERGOTAMINE MESYLATE]
Reply | 15

Ask | Next molecule: Cc1ccc(OCC(O)C(C)NC(C)C)c2c1CCC2.Cl (centres undefined)
Reply | 25

Ask | Next molecule: S=C(NCCCc1c[nH]cn1)NCCCN(Cc1ccc(Cl)c(Cl)c1)c1ccc(Br)cn1
Reply | 38

====

System: Fibroblast
Test: Multiplex assay against human fibroblast
Type: toxicity, cell-based
Conditions: 24 h, 1 µM, compound concentration 1 uM, replicate 2
Non-standard residues stand in square brackets, D forms with d. Residues, ends and D or L forms follow the SMILES beside them.
Answer each item with its documented Population Hoechst High Intensity Objects (%).
The reply should contain only the number, in %.

Ask | Which measured Population Hoechst High Intensity Objects (%) value corresponds to CN(C)C(=O)Cn1cc(-c2ccc(-c3nnc4ccccn34)cc2)cn1 ?
Reply | 4

Ask | Next compound: CC(F)(F)CN1CCOc2c(nn(-c3ccccc3Cl)c2-c2ccc(Cl)cc2)C1=O
Reply | 4

Ask | Next compound: OCCCNc1cc(-c2ccnc(Nc3cccc(Cl)c3)n2)ccn1
Reply | 3

Ask | Next compound: O=c1nc2[nH]c3ccccc3nc-2c(=O)[nH]1
Reply | 4

Ask | Next compound: Cl.Cl.OCCOCCN1CCN(C(c2ccccc2)c2ccc(Cl)cc2)CC1 (stereo not drawn) [HYDROXYZINE HYDROCHLORIDE]
Reply | 5

Ask | Next compound: S=C(NCCCc1c[nH]cn1)NCCCN(Cc1ccc(Cl)c(Cl)c1)c1ccc(Br)cn1
Reply | 1

Ask | Next compound: C=CCN1C[C@H](C(=O)N(CCCN(C)C)C(=O)NCC)C[C@@H]2c3cccc4[nH]cc(c34)C[C@H]21
Reply | 6

Ask | Next compound: CC(C)C[C@@H]1NC(=O)[C@@H](C(C)C)NC(=O)[C@@H]2CCCN2C(=O)[C@@H](CC(=O)O)NC(=O)[C@@H](Cc2c[nH]c3ccccc23)NC1=O [BQ-123] (cyclo(L[dW][dD]P[dV]))
Reply | 6

====

Tested on: Fibroblast
Assay: Multiplex assay against human fibroblast
Format: toxicity, cell-based
Settings: 12 h, 1 µM, compound concentration 1 uM, replicate 2
Non-standard residues stand in square brackets, D forms with d. Residues, ends and D or L forms follow the SMILES beside them.
Rule: Population Mitochondria Different-Phenotype (%) of 10% or more gives Met; anything lower gives Not met.

Ask | Is reported Population Mitochondria Different-Phenotype (%) greater than or equal to 10% here: CCc1nn2c(C)cc(C)nc2c1Cc1ccc(-c2nnc(C3CCNCC3)o2)cc1
Reply | Met

Ask | Next compound: Nc1nc(CC(=O)Nc2ccc(CCNC[C@H](O)c3ccccc3)cc2)cs1 [MIRABEGRON]
Reply | Met

Ask | Next compound: CC(C)C[C@@H]1NC(=O)[C@@H](C(C)C)NC(=O)[C@@H]2CCCN2C(=O)[C@@H](CC(=O)O)NC(=O)[C@@H](Cc2c[nH]c3ccccc23)NC1=O [BQ-123] (cyclo(L[dW][dD]P[dV]))
Reply | Not met

Ask | Next compound: CN(C)C(=O)Cn1cc(-c2ccc(-c3nnc4ccccn34)cc2)cn1
Reply | Not met

Ask | Next compound: Cc1ccc(OCC(O)C(C)NC(C)C)c2c1CCC2.Cl (stereo not drawn)
Reply | Not met

Ask | Next compound: COc1c(Nc2ccc(S(C)(=O)=O)nc2C)ncnc1OC1CCN(C(=O)OC(C)C)CC1 [ADP-597]
Reply | Not met

====

Answer each item with its documented Population Fragmented Nuclei (%).
Test system: U2OS
Assay: Multiplex assay against U2OS
Format: toxicity, cell-based
Details: human, 12 h, 10 µM, compound concentration 10 uM, replicate 2
The reply should contain only the number, in %.

Ask | Which measured Population Fragmented Nuclei (%) value corresponds to Cc1cc(-c2ccc3c(c2)CC[C@H]3N2CC3(CCN(C(=O)Cc4cn5cc(C)sc5n4)CC3)C2)ncn1 ?
Reply | 14

Ask | Next molecule: Cc1c(Cc2ccc3ccccc3n2)c2cc(F)ccc2n1CC(=O)O
Reply | 12

Ask | Next molecule: COc1c(Nc2ccc(S(C)(=O)=O)nc2C)ncnc1OC1CCN(C(=O)OC(C)C)CC1
Reply | 10

Ask | Next molecule: C[C@@H]1CC(=O)Nc2cccc(-c3ccc4c(c3)c(-c3cnn(C)c3)nn4C)c2N1
Reply | 21

Ask | Next molecule: CN1CCN2c3ccccc3Cc3ccccc3C2C1.Cl (centres undefined) [MIANSERIN HYDROCHLORIDE]
Reply | 12

Ask | Next molecule: COc1cc2nc(N3CCN(C(=O)COc4c(OC)cccc4C(C)C)CC3)nc(N)c2cc1OC.Cl.Cl
Reply | 19

Ask | Next molecule: CSc1nc(NC2CCCC2)c([N+](=O)[O-])c(NC2CCCC2)n1
Reply | 19

Ask | Next molecule: Cn1cc(C(=O)OCC2CCN(CCNS(C)(=O)=O)CC2)c2ccccc21
Reply | 18

Ask | Next molecule: CC(C)(C)c1ccc(CSc2cnn(C(C)(C)C)c(=O)c2Cl)cc1
Reply | 15

====

System: HEK-293T
Test: Multiplex assay against HEK293T
Assay type: toxicity, cell-based
Conditions: human, 48 h, 10 µM, compound concentration 10 uM, replicate 2
QUANTITY_KIND: Population Apoptotic (%)
The reply should contain only the number, in %.

Ask | Which measured Population Apoptotic (%) value corresponds to CN(C)C(=O)Cn1cc(-c2ccc(-c3nnc4ccccn34)cc2)cn1 ?
Reply | 37

Ask | Next compound: C[C@@H]1CC(=O)Nc2cccc(-c3ccc4c(c3)c(-c3cnn(C)c3)nn4C)c2N1
Reply | 42

Ask | Next compound: COc1ccc2[nH]c(I)c(CCNC(C)=O)c2c1
Reply | 25

Ask | Next compound: OCCCNc1cc(-c2ccnc(Nc3cccc(Cl)c3)n2)ccn1
Reply | 83

Ask | Next compound: O=C(NCCNCC(O)COc1ccc(O)cc1)N1CCOCC1.O=C(NCCNCC(O)COc1ccc(O)cc1)N1CCOCC1.O=C(O)/C=C/C(=O)O (stereo not given) [XAMOTEROL FUMARATE]
Reply | 25

====

System: U2OS
Assay: Multiplex assay against U2OS
Format: toxicity, cell-based
Conditions: human, 12 h, 10 µM, compound concentration 10 uM, replicate 1
Non-standard residues stand in square brackets, D forms with d. Residues, ends and D or L forms follow the SMILES beside them.
// NB: equality with 10% counts as false (0); only Population Membrane Permeable-Phenotype (%) strictly below is true (1)

Ask | Is Population Membrane Permeable-Phenotype (%) of CN1CCC(C(=O)c2cccc(NC(=O)c3c(F)cc(F)cc3F)n2)CC1 strictly below 10%?
Reply | false (0)

Ask | Next compound: O=c1ccc2ccc(OCCCCN3CCN(c4cccc5sccc45)CC3)cc2[nH]1 [BREXPIPRAZOLE]
Reply | false (0)

Ask | Next compound: Cc1cc(=O)n(C)c2cc(N3C(=O)CC[C@H](NS(=O)(=O)CC(C)C)[C@H]3c3ccc(Cl)cc3)ccc12
Reply | false (0)

Ask | Next compound: Cc1c(Cc2ccc3ccccc3n2)c2cc(F)ccc2n1CC(=O)O [TIMAPIPRANT]
Reply | true (1)

Ask | Next compound: S=C(NCCCc1c[nH]cn1)NCCCN(Cc1ccc(Cl)c(Cl)c1)c1ccc(Br)cn1
Reply | false (0)

Ask | Next compound: CC(C)C[C@@H]1NC(=O)[C@@H](C(C)C)NC(=O)[C@@H]2CCCN2C(=O)[C@@H](CC(=O)O)NC(=O)[C@@H](Cc2c[nH]c3ccccc23)NC1=O [BQ-123] (cyclo(L[dW][dD]P[dV]))
Reply | true (1)

Ask | Next compound: O=c1nc2[nH]c3ccccc3nc-2c(=O)[nH]1 [ALLOXAZINE]
Reply | true (1)

Ask | Next compound: CCc1nn2c(C)cc(C)nc2c1Cc1ccc(-c2nnc(C3CCNCC3)o2)cc1
Reply | false (0)

Ask | Next compound: CCCCCCNC(=O)Nc1ccc(S(=O)(=O)Nc2ccc(CCNC[C@H](O)COc3ccc(O)cc3)cc2)cc1 [L-755507]
Reply | false (0)

Ask | Next compound: CCCCC[C@H](O)/C=C/[C@H]1[C@H](O)CC(=O)[C@@H]1CCCCCCC(=O)O [ALPROSTADIL]
Reply | true (1)

Ask | Next compound: COC(c1ccccc1)(c1ccccc1)[C@H](Oc1nc(C)cc(C)n1)C(=O)O [AMBRISENTAN]
Reply | true (1)

Ask | Next compound: Cc1sc2c(c1C)C(c1ccc(Cl)cc1)=N[C@H](CC(=O)OC(C)(C)C)c1nnc(C)n1-2
Reply | false (0)

Ask | Next compound: CN1CCN2c3ccccc3Cc3ccccc3C2C1.Cl (stereo not drawn) [MIANSERIN HYDROCHLORIDE]
Reply | true (1)

Ask | Next compound: O=C(Nc1cc(-c2ccccc2)nn1-c1ccccc1F)c1ccc([N+](=O)[O-])cc1
Reply | false (0)

Ask | Next compound: Cc1cc(O)c(-c2ccc([C@@H](C)CN(C)C)cc2)c2c1[nH]c(=O)c1sccc12
Reply | false (0)

Ask | Next compound: N[C@](CC1c2ccccc2Oc2ccccc21)(C(=O)O)[C@H]1C[C@@H]1C(=O)O
Reply | true (1)
